- measured target: T1, Abp1, P15891
- T1 sequence (P15891 535-592, looked up): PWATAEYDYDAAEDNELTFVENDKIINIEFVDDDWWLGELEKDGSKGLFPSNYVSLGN
- assay info: SPOT array
- conditions: median of control spots 935
Threshold 100. SPOT intensity below it: 1.0. SPOT intensity at it or above: 0.0.

Worked examples, 5 binders total:
PKMLPIPSKPTLFDL ... 0.0
RSVKRPRRAPRPVVS ... 0.0
RPVPRRPSQPLNTLS ... 0.0
TKHKAPPPPPPTAET ... 1.0
RMVRRRPLRVQFSAR ... 0.0

Req: Here's an entry: "DGNEEKPLLPTRPNK" . Is its SPOT intensity below 100?
Resp: 1.0

Req: Lookup "IKKRNKIRLPSGSPE"
Resp: 0.0
